Tested on: A673 NR0B1-luciferase reporter, viability-normalised luminescence
assay-method-text: suppressors of NR0B1-promoter luciferase reporter, dose response, EWS/Fli inhibitor project, luciferase luminescence, A673 cells, cherry-pick (AID 686920)
# AC35 annotations
reported-property: AC35

[
  {
    "compound": "O=C(O)c1ccc2cc(-c3ccccc3)[nH]c2c1",
    "result": "6.18 µM"
  },
  {
    "compound": "CC(C)c1oc(=O)cc2c1[C@@H](O)[C@H]1OC(=O)[C@@]3(C)CC[C@@H](O)[C@@]2(C)C13 (stereo not given in full)",
    "result": "4.21 µM"
  },
  {
    "compound": "O=C(CCCN1C(=O)/C(=C/c2ccccc2Cl)SC1=S)NNC(=O)c1ccc(Cl)cc1",
    "result": "8.68 µM"
  },
  {
    "compound": "CN(c1ccc(NC(=O)CCc2c[nH]c3ccccc23)cc1)c1ccccn1",
    "result": "4.96 µM"
  },
  {
    "compound": "Cc1ccc(C)c(S(=O)(=O)N2CCN(c3ncnc4sccc34)CC2)c1",
    "result": "3.63 µM"
  }
]

Hello, the source for this data is PubChem BioAssay AID686920, in case you need it.
